Tested on: BT-549
Assay: NCI tumour cell line growth inhibition, 48 h
Activity calls are given as the source filed them. Cut-off read from the data, not from the text of the source: active = GI50 up to about 1.1 µM and inactive = higher. Peptide text beside a SMILES is read from it. * marks the point of attachment. Boc = CC(C)(C)OC(=O)*; OBn = c1ccc(CO*)cc1; Bn = c1ccc(C*)cc1
Property: GI50

INSERT INTO results (compound, observed) VALUES
  ('C/C(=N/NC(=O)c1ccccc1Nc1ccccc1C(=O)N/N=C(\C)c1ccc(C)cc1)c1ccc(C)cc1', '> 100 µM (inactive)'),
  ('C[C@]12CC[C@H]3[C@@H](CCC4=C[C@@H](N5CCCC5)CC[C@@]43C)[C@@H]1C/C(=C\c1ccncc1)[C@@H]2O', '18.3 µM (inactive)'),
  ('CC(C)CC(NC(=O)C(CCC(=O)OCc1ccccc1)NC(=O)OC(C)(C)C)C(=O)NC(COCc1ccccc1)C(=O)NC(Cc1ccccc1)C(=O)O (centres undefined) (Boc-E(OBn)LS(Bn)F-OH; configuration not given here)', '> 100 µM (inactive)');

Continue with the next compound.
Request the reported GI50 associated with Brc1ccc2[nH]cc([C@H]3CN[C@@H](c4c[nH]c5ccc(Br)cc45)CN3)c2c1 > 41.1 µM (inactive)
